All values here come from patent US20240116985A1.

biological target: Bcat-Halo (UniProt P35222); test: NanoBRET Abs IC50; Bcat-Halo/TCF4-Luc engagement in HEK293 cells
Sequence (P35222 whole entry): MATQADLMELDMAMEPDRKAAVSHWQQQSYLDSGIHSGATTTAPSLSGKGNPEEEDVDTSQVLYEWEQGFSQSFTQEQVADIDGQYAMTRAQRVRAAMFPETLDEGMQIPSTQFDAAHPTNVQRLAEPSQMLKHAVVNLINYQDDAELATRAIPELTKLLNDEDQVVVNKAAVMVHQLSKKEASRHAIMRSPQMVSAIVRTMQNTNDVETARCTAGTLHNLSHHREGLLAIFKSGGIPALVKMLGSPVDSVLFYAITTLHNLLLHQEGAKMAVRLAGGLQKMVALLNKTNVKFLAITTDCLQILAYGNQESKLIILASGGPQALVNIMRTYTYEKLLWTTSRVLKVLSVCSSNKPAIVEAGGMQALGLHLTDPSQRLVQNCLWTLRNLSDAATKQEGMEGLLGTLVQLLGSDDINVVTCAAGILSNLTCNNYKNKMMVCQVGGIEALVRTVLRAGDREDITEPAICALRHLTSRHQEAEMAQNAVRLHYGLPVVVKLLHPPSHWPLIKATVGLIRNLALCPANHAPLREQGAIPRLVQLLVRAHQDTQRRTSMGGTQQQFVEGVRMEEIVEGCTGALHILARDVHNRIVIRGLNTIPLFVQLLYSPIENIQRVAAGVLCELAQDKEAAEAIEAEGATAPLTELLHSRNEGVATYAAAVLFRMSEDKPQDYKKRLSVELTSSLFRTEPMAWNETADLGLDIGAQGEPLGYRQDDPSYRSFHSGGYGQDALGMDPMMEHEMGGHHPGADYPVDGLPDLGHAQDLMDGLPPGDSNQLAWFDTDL
Starred links: 1 amine or outer side, 2 acyl side, 3 side chain; linkers in the order of their positions; H or OH if unused. Positions of bridges follow the written chain, without caps; N, C: chain ends. Non-standard residues stand in square brackets, D forms with d. Primed or numbered codes have the meaning given here. PyrS2″ = (S)-3-amino-1-((pent-4-en-1-yloxy)carbonyl)pyrrolidine-3-carboxylic acid (stapling residue), C=CCCCOC(=O)N1CC[C@@](N[*:1])(C(=O)[*:2])C1; B5 = 2-amino-2-(pent-4-en-1-yl)hept-6-enoic acid, C=CCCCC(CCCC=C)(N[*:1])C(=O)[*:2]; Bta = N[C@@H](Cc1csc2ccccc12)C(=O)O; αAllylPro = C=CC[C@@]1(C(=O)O)CCCN1; tBuAla = CC(C)(C)C[C@H](N)C(=O)O; 3Thi = N[C@@H](Cc1ccsc1)C(=O)O
quantity-kind: IC50
A bare number is not enough; add the unit after it.

Challenge: Which IC50 value belongs to Ac-[αAllylPro]D[tBuAla][B5]DDAAFN[PyrS2″][3Thi][Bta][dN]-NH2 (staple 1-4, 4-11) [I-818] ?
Response given: 15 µM
